# Target system: TYK2 (Homo sapiens, UniProt P29597)
# Sequence (P29597 whole entry): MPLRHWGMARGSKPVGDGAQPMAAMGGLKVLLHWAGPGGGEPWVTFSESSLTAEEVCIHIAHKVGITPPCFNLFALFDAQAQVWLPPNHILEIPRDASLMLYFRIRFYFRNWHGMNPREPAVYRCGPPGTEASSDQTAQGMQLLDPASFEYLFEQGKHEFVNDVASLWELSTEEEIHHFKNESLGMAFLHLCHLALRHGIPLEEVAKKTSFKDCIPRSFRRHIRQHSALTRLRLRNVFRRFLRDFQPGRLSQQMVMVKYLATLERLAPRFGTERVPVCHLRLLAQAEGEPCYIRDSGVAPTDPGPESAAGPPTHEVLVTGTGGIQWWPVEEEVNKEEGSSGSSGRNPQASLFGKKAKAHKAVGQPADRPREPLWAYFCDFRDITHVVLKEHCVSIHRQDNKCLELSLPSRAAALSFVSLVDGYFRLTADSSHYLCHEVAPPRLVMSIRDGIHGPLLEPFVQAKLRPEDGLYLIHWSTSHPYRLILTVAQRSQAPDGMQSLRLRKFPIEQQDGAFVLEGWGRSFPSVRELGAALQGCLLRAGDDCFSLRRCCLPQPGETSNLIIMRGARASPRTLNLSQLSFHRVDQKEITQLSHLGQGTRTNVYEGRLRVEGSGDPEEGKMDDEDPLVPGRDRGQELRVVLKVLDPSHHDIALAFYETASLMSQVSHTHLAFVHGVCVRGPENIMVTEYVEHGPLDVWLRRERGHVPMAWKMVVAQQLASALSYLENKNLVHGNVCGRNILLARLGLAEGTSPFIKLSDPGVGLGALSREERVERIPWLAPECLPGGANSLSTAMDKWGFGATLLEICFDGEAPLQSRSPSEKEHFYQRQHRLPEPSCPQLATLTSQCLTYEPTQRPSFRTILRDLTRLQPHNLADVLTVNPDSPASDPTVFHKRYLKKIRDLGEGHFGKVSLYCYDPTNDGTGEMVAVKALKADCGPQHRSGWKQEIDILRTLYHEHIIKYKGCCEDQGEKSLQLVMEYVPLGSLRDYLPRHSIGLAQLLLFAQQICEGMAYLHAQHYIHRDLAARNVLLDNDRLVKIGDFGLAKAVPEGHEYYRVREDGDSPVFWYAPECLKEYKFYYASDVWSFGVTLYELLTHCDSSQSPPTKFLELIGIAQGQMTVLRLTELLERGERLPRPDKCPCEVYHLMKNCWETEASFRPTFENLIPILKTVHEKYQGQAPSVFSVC
# Measurement protocol: TYK2 kinase inhibition (Table A1)
# Format: biochemical
# Applied conditions: Table D1
Where a name gives a salt, the structure may show the parent alone.
Field: pIC50. Provide a value for each of the molecules that follow.
The quantity pIC50 is defined as the negative base-10 logarithm of the molar concentration.

Report pIC50, nothing else, for this molecule: Clc1cnc2nc1Nc1cccc(c1)CCSCc1cccc(c1)N2 [Example D34, trifluoroacetate]
6.68

Hello, please tell me recorded pIC50 for this one: Cc1cc(C(=O)Nc2cc3cc(c2)OCCSc2cccc(c2)Nc2nc(ncc2Cl)N3)no1 [Example D58, trifluoroacetate]
8.60
